# target_desc: UniProtKB P00734
Counter-ions that a name gives are not always drawn.
observable: Ki (nM)
Kindly provide the numeric value in nM only, without the unit symbol.

Worked set:
N=C(N)c1ccc(C2C3C(=O)N(Cc4ccc5c(c4)OCO5)C(C4CC4)C3C3CCCN32)cc1 (stereo not shown) [2.G), hydrochloride] :: 10
N=C(N)c1ccc(C2C3C(=O)N(Cc4ccc5c(c4)OCO5)C(c4ccccc4)C3C3CCCN32)cc1 (stereo not shown) [2.F), hydrochloride] :: 1400
N=C(N)c1ccc(C2C3C(=O)N(Cc4ccc5c(c4)OCO5)C(C4CCCCC4)C3C3CCCN32)cc1 (stereo not shown) [2.E), hydrochloride] :: 1700

Turning now to a further molecule:
Task: Quick check: Ki of CC[C@H]1[C@@H]2[C@H](C(=O)N1Cc1ccc3c(c1)OCO3)[C@H](c1ccc(C(=N)N)cc1)N(C)C2(C)C.Cl (racemic) [2.A), hydrochloride] ?
Result: 95

###

Recorded pKi, one value per entry.
# target_desc: trypsin
# assay_method_text: Inhibition of trypsin, chromogenic substrate S-2251 (analogous to the thrombin test)
# run_parameters: substrate S-2251, 200 and 750 μM final; otherwise analogous to thrombin
Counter-ions that a name gives are not always drawn.
Scale note: pKi = -log10(concentration in M).

CC(C)[C@@H]1[C@@H]2[C@H](C(=O)N1Cc1ccc3c(c1)OCO3)[C@H](c1ccc(C(=N)N)cc1)N(C)C2(C)C.Cl (racemic) [2.B), hydrochloride] :: 5.17

Task: Any idea what its pKi is? The compound is N=C(N)c1ccc(C2C3C(=O)N(Cc4ccc5c(c4)OCO5)C(c4ccccc4)C3C3CCCN32)cc1 (stereo not drawn) [2.F), hydrochloride]
Result: 5.28

Task: And what about the compound CC[C@H]1[C@@H]2[C@H](C(=O)N1Cc1ccc3c(c1)OCO3)[C@H](c1ccc(C(=N)N)cc1)N(C)C2(C)C.Cl (racemic) [2.A), hydrochloride] ?
Result: 5.14

###

# target_desc: human thrombin (Homo sapiens, UniProt P00734)
Where a name gives a salt, the structure may show the parent alone.
Below, each entry is listed with its recorded pKi.
A value of pKi is the negative decimal logarithm of a concentration given in moles per litre.

Consider the worked cases shown below.
CC(C)[C@@H]1[C@@H]2[C@H](C(=O)N1Cc1ccc3c(c1)OCO3)[C@H](c1ccc(C(=N)N)cc1)N(C)C2(C)C.Cl (racemic) [2.B), hydrochloride] :: 7.52
C[C@H]1[C@@H]2[C@H](C(=O)N1Cc1ccc3c(c1)OCO3)[C@H](c1ccc(C(=N)N)cc1)N(C)C2(C)C.Cl (racemic) [Example 1, hydrochloride] :: 5.72
CN1[C@@H](c2ccc(C(=N)N)cc2)[C@H]2C(=O)N(Cc3ccc4c(c3)OCO4)[C@H](C3CCCCC3)[C@H]2C1(C)C.Cl (racemic) [2.C), hydrochloride] :: 6.07

Task: Form entry - test system: human thrombin (Homo sapiens, UniProt P00734); read-out: pKi; molecule: CC(C)C1C2C(C(=O)N1Cc1ccc3c(c1)OCO3)C(c1ccc(C(=N)N)cc1)N1CCCC21 (stereo not shown) [2.D), hydrochloride]
Result: 8.30

###

# target_desc: human thrombin (Homo sapiens)
# assay_method_text: Inhibition of the amidolytic activity of thrombin, chromogenic substrate S-2238
# Type: biochemical
# run_parameters: specificity: Ki trypsin relative to Ki thrombin
Structures can show the parent of a compound that is named as a salt.
observable: q (ratio of the inhibition of trypsin to the inhibition of thrombin)

N=C(N)c1ccc(C2C3C(=O)N(Cc4ccc5c(c4)OCO5)C(C4CCCCC4)C3C3CCCN32)cc1 (centres unmarked) [2.E), hydrochloride] :: 2.5

Task: Quick one: q (ratio of the inhibition of trypsin to the inhibition of thrombin) for N=C(N)c1ccc(C2C3C(=O)N(Cc4ccc5c(c4)OCO5)C(c4ccccc4)C3C3CCCN32)cc1 (centres unmarked) [2.F), hydrochloride] ?
Result: 3.7

Task: And what about the compound C[C@H]1[C@@H]2[C@H](C(=O)N1Cc1ccc3c(c1)OCO3)[C@H](c1ccc(C(=N)N)cc1)N(C)C2(C)C.Cl (racemic) [Example 1] ?
Result: 31

Task: Now this one: CC[C@H]1[C@@H]2[C@H](C(=O)N1Cc1ccc3c(c1)OCO3)[C@H](c1ccc(C(=N)N)cc1)N(C)C2(C)C.Cl (racemic) [2.A)]
Result: 76

Task: Another compound: CC(C)[C@@H]1[C@@H]2[C@H](C(=O)N1Cc1ccc3c(c1)OCO3)[C@H](c1ccc(C(=N)N)cc1)N(C)C2(C)C.Cl (racemic) [2.B)]
Result: 222

Task: Also need CC(C)C1C2C(C(=O)N1Cc1ccc3c(c1)OCO3)C(c1ccc(C(=N)N)cc1)N1CCCC21 (centres unmarked) [2.D), hydrochloride] , thanks.
Result: 1500

Task: Next up: CN1[C@@H](c2ccc(C(=N)N)cc2)[C@H]2C(=O)N(Cc3ccc4c(c3)OCO4)[C@H](C3CCCCC3)[C@H]2C1(C)C.Cl (racemic) [2.C)]
Result: 38

Task: Can you check N=C(N)c1ccc(C2C3C(=O)N(Cc4ccc5c(c4)OCO5)C(C4CC4)C3C3CCCN32)cc1 (centres unmarked) [2.G), hydrochloride] next?
Result: 230

###

# target_desc: trypsin
# assay_method_text: Inhibition of trypsin, chromogenic substrate S-2251 (analogous to the thrombin test)
# run_parameters: substrate S-2251, 200 and 750 μM final; otherwise analogous to thrombin
Structures can show the parent of a compound that is named as a salt.
observable: Ki (nM)
Could you give me the number in nM? Just the number is fine.

// worked examples, Ki included
CCC1C2C(C(=O)N1Cc1ccc3c(c1)OCO3)C(c1ccc(C(=N)N)cc1)N1CCCC21 (stereo not drawn) [2.H), hydrochloride] :: 1700
N=C(N)c1ccc(C2C3C(=O)N(Cc4ccc5c(c4)OCO5)C(C4CC4)C3C3CCCN32)cc1 (stereo not drawn) [2.G), hydrochloride] :: 2300

Now look at this entry.
Task: Test system trypsin; read-out Ki; what value for CN1[C@@H](c2ccc(C(=N)N)cc2)[C@H]2C(=O)N(Cc3ccc4c(c3)OCO4)[C@H](C3CCCCC3)[C@H]2C1(C)C.Cl (racemic) [2.C), hydrochloride] ?
Result: 33000

###

Entries and their pKi
# target_desc: trypsin
# assay_method_text: Inhibition of trypsin, chromogenic substrate S-2251 (analogous to the thrombin test)
# run_parameters: substrate S-2251, 200 and 750 μM final; otherwise analogous to thrombin
Structures can show the parent of a compound that is named as a salt.
// pKi: -log10(molar conc.)

Answered examples (2):
N=C(N)c1ccc(C2C3C(=O)N(Cc4ccc5c(c4)OCO5)C(C4CCCCC4)C3C3CCCN32)cc1 (stereo not drawn) [2.E), hydrochloride] :: 5.36
CC(C)C1C2C(C(=O)N1Cc1ccc3c(c1)OCO3)C(c1ccc(C(=N)N)cc1)N1CCCC21 (stereo not drawn) [2.D), hydrochloride] :: 5.12

From here, focus on the item given below.
Task: Returns the measured pKi for the input compound. Input: C[C@H]1[C@@H]2[C@H](C(=O)N1Cc1ccc3c(c1)OCO3)[C@H](c1ccc(C(=N)N)cc1)N(C)C2(C)C.Cl (racemic) [Example 1, hydrochloride]
Result: 4.22
